List of pKi values.
- SYSTEM: UniProtKB P10481
- Sequence (P10481 whole entry): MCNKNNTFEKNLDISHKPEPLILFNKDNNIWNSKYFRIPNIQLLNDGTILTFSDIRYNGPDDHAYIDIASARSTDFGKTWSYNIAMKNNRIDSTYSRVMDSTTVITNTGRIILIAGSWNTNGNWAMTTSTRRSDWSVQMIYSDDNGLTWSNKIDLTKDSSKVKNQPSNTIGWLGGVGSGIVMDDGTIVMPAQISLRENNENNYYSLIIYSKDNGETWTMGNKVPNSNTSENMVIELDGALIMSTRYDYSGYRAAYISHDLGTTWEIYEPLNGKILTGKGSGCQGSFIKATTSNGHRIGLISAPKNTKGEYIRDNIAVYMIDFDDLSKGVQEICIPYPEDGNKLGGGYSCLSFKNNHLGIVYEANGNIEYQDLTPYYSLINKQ
- MEASUREMENT_NOTES: Apparent binding affinity at Clostridium perfringens neuraminidase by fluorimetry
- APPLIED_CONDITIONS: read-out: Ki(app)
Please treat pKi as minus the base-10 logarithm of the molar concentration.

CC(C)=CCc1c(O)c(O)cc2c(=O)c3c(O)c4c(cc3oc12)OC(C)C4(C)C (stereo not given) [CUDRAXANTHONE M]
6.29
C=CC(C)(C)c1c(O)cc2oc3c(CC=C(C)C)c(O)c(O)cc3c(=O)c2c1O [CUDRAXANTHONE L]
6.25
C=CC(C)(C)c1c2c(c(O)c3c(=O)c4ccc(O)c(O)c4oc13)C=CC(C)(C)O2 [MACLURAXANTHONE]
6.32
C=CC(C)(C)c1c(O)cc2oc3cc(O)c(O)c(CC=C(C)C)c3c(=O)c2c1O
6.89

What the record says about C=CC(C)(C)c1c(O)cc(O)c2c(=O)c3c(CC=C(C)C)c(O)c(O)cc3oc12 [CUDRATRICUSXANTHONE A] : pKi is 6.67
